Assay Remarks: drug combination growth inhibition, ovarian cancer – cell-based, oncology-focused library, rucaparib conditional, profiling panel (AID 1508598)
Experimental Context: patient-derived ovarian cancer cells, CellTiter-Glo viability, 144 h; at 0.0781 µM; OCI-C5x cells; without rucaparib
Active and inactive are the calls of the source.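 Rule for the calls: active = normalized viability below 100% at a tested concentration; inactive = the rest.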
Possible outcomes: yes (1) = active, no (0) = inactive

| Item Smiles | Assigned Label |
| --- | --- |
| Cc1ccc(NC(=O)c2cccc(C(C)(C)C#N)c2)cc1Nc1ccc2ncn(C)c(=O)c2c1 | no (0) |
| C=CC(=O)Nc1cccc(Oc2nc(Nc3ccc(N4CCN(C)CC4)cc3OC)ncc2Cl)c1 | no (0) |
| CN(c1ncccc1CNc1nc(Nc2ccc3c(c2)CC(=O)N3)ncc1C(F)(F)F)S(C)(=O)=O | no (0) |
| C#CC[C@H](c1nc2cc(Cl)ccc2c(=O)n1Nc1ccccc1)N(CCCN)C(=O)c1cccc(Cl)c1F | yes (1) |
| CCOc1ccn(-c2ccc(F)cc2)c(=O)c1C(=O)Nc1ccc(Oc2ccnc(N)c2Cl)c(F)c1 | no (0) |
| COc1ccc(-c2ccc3c(N4CCOCC4)nc(N4C[C@@H](C)O[C@@H](C)C4)nc3n2)cc1CO | no (0) |
| Cc1ccc([C@@H]2O[C@H](CO)[C@@H](O)[C@H](O)[C@H]2O)cc1Cc1ccc(-c2ccc(F)cc2)s1 | no (0) |
| Cn1cnc(=N)c2[nH]cnc21 | no (0) |
| COc1cc(Nc2ncc3c(n2)-c2ccc(Cl)cc2C(c2c(F)cccc2OC)=NC3)ccc1C(=O)O | yes (1) |
| COc1cc(OC)c(/C=C/S(=O)(=O)Cc2ccc(OC)c(NCC(=O)O)c2)c(OC)c1 | yes (1) |
| CC(C)c1cc(-c2n[nH]c(=O)n2-c2ccc3c(ccn3C)c2)c(O)cc1O | yes (1) |
| CC1(C)CCC(c2ccc(Cl)cc2)=C(CN2CCN(c3ccc(C(=O)NS(=O)(=O)c4ccc(N[C@H](CCN5CCOCC5)CSc5ccccc5)c(S(=O)(=O)C(F)(F)F)c4)cc3)CC2)C1 | yes (1) |
| CN1CCCN(C(=O)c2cccc(-c3ccc(/C=C4/C(=O)Nc5ccc(Cl)cc54)o3)c2)CC1 | no (0) |
| CN1CCN(c2cccc(Nc3nc4c(-c5ccc(S(C)(=O)=O)cc5)cccn4n3)c2)CC1 | no (0) |
| C[C@@H]1CN(CC(=O)Nc2ccc3c(c2)Cc2cccc(-c4cc(=O)cc(N5CCOCC5)o4)c2S3)C[C@H](C)O1 | no (0) |
| C[C@@H](Oc1cc(-n2cnc3ccc(CN4CCN(C)CC4)cc32)sc1C(N)=O)c1ccccc1C(F)(F)F | yes (1) |
| CCn1c(-c2nonc2N)nc2c(C#CC(C)(C)O)ncc(OC[C@H]3CCCNC3)c21 | no (0) |
| CC[C@@H]1C(=O)N(C)c2cnc(Nc3ccc(C(=O)NC4CCN(C)CC4)cc3OC)nc2N1C1CCCC1 | yes (1) |
| COc1cc(OC2CCN(C)CC2)ccc1Nc1ncc2c(n1)n(C1CCCC1)c(=O)n2C | no (0) |
| CC(C)C[C@H](NC(=O)CNC(=O)c1cc(Cl)ccc1Cl)B(O)O | no (0) |
| Cn1cc(-c2ccc3nnc(Sc4ccc5ncccc5c4)n3n2)cn1 | no (0) |
| CC(/C=C/C(=O)NO)=C\[C@@H](C)C(=O)c1ccc(N(C)C)cc1 | yes (1) |
| NC1(c2ccc(-c3nc4ccn5c(=O)[nH]nc5c4cc3-c3ccccc3)cc2)CCC1 | no (0) |
| Cc1cnc(-c2cnc(NCCNc3ccc(C#N)cn3)nc2-c2ccc(Cl)cc2Cl)[nH]1 | no (0) |
| CC(C)c1ccccc1Cc1cc(C(=O)Nc2ccc(S(=O)(=O)c3ccccc3C(C)(C)C)cc2)c(O)c(O)c1O | no (0) |
| Cn1cnc2c(F)c(Nc3ccc(Br)cc3Cl)c(C(=O)NOCCO)cc21 | yes (1) |
| CCN1CCN(Cc2ccc(-c3cc4c(N[C@H](C)c5ccccc5)ncnc4[nH]3)cc2)CC1 | no (0) |

meta.source: PubChem BioAssay
